target.of.assay: T1, holo NsrR ([4Fe-4S] in each subunit) (Streptomyces coelicolor, UniProt Q9L132 1-148)
T1 sequence: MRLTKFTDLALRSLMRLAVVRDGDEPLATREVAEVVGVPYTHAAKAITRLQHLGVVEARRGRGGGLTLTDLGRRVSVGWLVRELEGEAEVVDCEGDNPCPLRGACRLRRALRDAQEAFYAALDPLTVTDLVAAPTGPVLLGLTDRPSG
protocol.summary: native MS; 100 mM ammonium acetate pH 8; relative affinity; SPR: 10 mM HEPES, 150 mM NaCl, 0.05% polysorbate 20, pH 7.4, 25 C, anaerobic; native MS: 100 mM ammonium acetate pH 8 (30 C for nitrosylation)
settings: protein: recombinant; tags: none; chain copies: 2; blunt
metric.name: Kd (nM)
Give bare numbers, in nM.

Entry under test: hmpA1 22 bp native MS (dsDNA) DNA 1: AACACGAATATCATCTACCAAT DNA 2: ATTGGTAGATGATATTCGTGTT . Its Kd was 3000
